The reported numbers originate from the kinase profiling compilation of Christmann-Franck et al. (2016).

The reader will find reported kinase still bound, per cent of control values listed item by item below.
molecular target: UniProt:Q9H2X6; assay: KINOMEscan competition binding; conditions: compound 10.0 µM
Sequence (Q9H2X6 whole entry, looked up): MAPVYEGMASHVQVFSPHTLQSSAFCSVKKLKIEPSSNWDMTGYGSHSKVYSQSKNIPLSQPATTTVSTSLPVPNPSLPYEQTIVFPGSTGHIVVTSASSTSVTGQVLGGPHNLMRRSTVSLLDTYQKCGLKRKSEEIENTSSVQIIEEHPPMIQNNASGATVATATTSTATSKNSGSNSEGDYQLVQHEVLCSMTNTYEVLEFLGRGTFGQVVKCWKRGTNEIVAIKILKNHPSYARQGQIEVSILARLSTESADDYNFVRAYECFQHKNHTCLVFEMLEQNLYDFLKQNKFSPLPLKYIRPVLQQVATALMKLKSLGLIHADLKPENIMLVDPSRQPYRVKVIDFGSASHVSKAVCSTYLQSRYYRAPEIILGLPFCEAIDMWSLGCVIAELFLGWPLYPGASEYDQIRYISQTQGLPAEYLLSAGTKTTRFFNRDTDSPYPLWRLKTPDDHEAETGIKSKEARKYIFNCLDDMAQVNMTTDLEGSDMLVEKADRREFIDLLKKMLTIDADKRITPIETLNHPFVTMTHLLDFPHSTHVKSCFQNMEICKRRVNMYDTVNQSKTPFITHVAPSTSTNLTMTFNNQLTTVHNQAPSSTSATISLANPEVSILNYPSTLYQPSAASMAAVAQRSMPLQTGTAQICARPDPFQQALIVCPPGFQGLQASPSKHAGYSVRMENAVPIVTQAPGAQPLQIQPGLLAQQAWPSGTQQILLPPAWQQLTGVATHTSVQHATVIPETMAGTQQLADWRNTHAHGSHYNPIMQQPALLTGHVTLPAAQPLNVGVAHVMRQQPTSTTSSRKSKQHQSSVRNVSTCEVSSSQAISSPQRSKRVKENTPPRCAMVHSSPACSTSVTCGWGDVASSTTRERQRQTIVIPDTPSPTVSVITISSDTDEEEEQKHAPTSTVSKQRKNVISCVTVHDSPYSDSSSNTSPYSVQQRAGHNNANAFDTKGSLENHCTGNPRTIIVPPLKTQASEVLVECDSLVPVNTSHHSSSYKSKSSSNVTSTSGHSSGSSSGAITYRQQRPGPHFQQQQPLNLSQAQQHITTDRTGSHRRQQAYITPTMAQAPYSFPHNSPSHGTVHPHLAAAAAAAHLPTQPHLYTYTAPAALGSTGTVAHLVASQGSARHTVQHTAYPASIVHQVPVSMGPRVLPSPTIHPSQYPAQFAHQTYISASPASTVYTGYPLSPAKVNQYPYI
State the answer as a number, implicitly in %.

Known kinase still bound, per cent of control results, listed for orientation:
Cn1cc(C2=C(c3ccc(Cl)cc3Cl)C(=O)NC2=O)c2ccccc21 ... 15
Cc1cnc(-c2cnc(NCCNc3ccc(C#N)cn3)nc2-c2ccc(Cl)cc2Cl)[nH]1 ... 100

Look up kinase still bound, per cent of control with UniProt:Q9H2X6 for this compound: O=C1Nc2cc(Br)ccc2/C1=C1/Nc2ccccc2/C1=N\O
7.4

Look up kinase still bound, per cent of control with UniProt:Q9H2X6 for this compound: COc1ccc(CNC(=O)Nc2ncc([N+](=O)[O-])s2)cc1
90

---

The reader will find reported kinase still bound, per cent of control values listed item by item below.
target: CAMK2D (human) (UniProt Q13557); test: KINOMEscan competition binding; conditions: compound 10.0 µM
Sequence (Q13557 whole entry, looked up): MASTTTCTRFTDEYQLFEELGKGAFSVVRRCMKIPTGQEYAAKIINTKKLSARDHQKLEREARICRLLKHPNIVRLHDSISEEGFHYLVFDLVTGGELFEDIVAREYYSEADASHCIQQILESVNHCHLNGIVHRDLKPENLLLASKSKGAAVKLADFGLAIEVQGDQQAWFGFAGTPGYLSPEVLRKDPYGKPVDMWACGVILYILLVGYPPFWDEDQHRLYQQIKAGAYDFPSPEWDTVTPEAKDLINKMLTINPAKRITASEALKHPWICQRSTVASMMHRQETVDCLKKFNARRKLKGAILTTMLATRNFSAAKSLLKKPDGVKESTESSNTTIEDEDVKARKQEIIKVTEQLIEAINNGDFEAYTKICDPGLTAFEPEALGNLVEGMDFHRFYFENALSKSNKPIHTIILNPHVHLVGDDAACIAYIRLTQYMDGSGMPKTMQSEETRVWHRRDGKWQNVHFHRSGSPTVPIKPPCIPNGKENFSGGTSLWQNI
State the answer as a number, implicitly in %.

Known kinase still bound, per cent of control results, listed for orientation:
Cn1cc(C2=C(c3ccc(Cl)cc3Cl)C(=O)NC2=O)c2ccccc21 ... 56
COc1ccc(CNC(=O)Nc2ncc([N+](=O)[O-])s2)cc1 ... 100
O=C1Nc2cc(Br)ccc2/C1=C1/Nc2ccccc2/C1=N\O ... 2.1

Please turn your attention to the following entry.
Would you mind telling me what kinase still bound, per cent of control value was observed for Cc1cnc(-c2cnc(NCCNc3ccc(C#N)cn3)nc2-c2ccc(Cl)cc2Cl)[nH]1 ?
100

---

target: CSNK2A1 (human) (UniProt P68400); assay: KINOMEscan competition binding; details: compound 10.0 µM
Sequence (P68400 whole entry, looked up): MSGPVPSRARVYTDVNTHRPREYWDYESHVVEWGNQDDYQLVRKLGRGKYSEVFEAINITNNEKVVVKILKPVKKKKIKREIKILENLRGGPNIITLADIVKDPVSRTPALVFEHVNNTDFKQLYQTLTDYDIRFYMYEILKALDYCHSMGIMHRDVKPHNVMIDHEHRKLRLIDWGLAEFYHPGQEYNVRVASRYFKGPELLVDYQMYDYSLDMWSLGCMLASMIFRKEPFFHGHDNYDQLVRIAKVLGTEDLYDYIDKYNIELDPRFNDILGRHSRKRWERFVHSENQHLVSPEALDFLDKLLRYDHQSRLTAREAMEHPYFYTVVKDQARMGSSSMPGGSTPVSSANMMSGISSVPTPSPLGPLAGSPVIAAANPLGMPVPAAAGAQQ
The reader will find reported kinase still bound, per cent of control values listed item by item below.
State the answer as a number, implicitly in %.

Known kinase still bound, per cent of control results, listed for orientation:
COc1ccc(CNC(=O)Nc2ncc([N+](=O)[O-])s2)cc1 ... 100
Cn1cc(C2=C(c3ccc(Cl)cc3Cl)C(=O)NC2=O)c2ccccc21 ... 35
O=C1Nc2cc(Br)ccc2/C1=C1/Nc2ccccc2/C1=N\O ... 6.2

Please turn your attention to the following entry.
Look up kinase still bound, per cent of control with CSNK2A1 (human) (UniProt P68400) for this compound: Cc1cnc(-c2cnc(NCCNc3ccc(C#N)cn3)nc2-c2ccc(Cl)cc2Cl)[nH]1
65

---

The reader will find reported kinase still bound, per cent of control values listed item by item below.
biological target: MUSK (human) (UniProt O15146); assay: KINOMEscan competition binding; conditions: compound 10.0 µM
State the answer as a number, implicitly in %.

Cc1cnc(-c2cnc(NCCNc3ccc(C#N)cn3)nc2-c2ccc(Cl)cc2Cl)[nH]1 ... 100
Cn1cc(C2=C(c3ccc(Cl)cc3Cl)C(=O)NC2=O)c2ccccc21 ... 100
COc1ccc(CNC(=O)Nc2ncc([N+](=O)[O-])s2)cc1 ... 100

Would you mind telling me what kinase still bound, per cent of control value was observed for O=C1Nc2cc(Br)ccc2/C1=C1/Nc2ccccc2/C1=N\O ?
83

---

The reader will find reported kinase still bound, per cent of control values listed item by item below.
biological target: PIK3CG (human) (UniProt P48736); assay: KINOMEscan competition binding; conditions: compound 10.0 µM
Sequence (P48736 whole entry, looked up): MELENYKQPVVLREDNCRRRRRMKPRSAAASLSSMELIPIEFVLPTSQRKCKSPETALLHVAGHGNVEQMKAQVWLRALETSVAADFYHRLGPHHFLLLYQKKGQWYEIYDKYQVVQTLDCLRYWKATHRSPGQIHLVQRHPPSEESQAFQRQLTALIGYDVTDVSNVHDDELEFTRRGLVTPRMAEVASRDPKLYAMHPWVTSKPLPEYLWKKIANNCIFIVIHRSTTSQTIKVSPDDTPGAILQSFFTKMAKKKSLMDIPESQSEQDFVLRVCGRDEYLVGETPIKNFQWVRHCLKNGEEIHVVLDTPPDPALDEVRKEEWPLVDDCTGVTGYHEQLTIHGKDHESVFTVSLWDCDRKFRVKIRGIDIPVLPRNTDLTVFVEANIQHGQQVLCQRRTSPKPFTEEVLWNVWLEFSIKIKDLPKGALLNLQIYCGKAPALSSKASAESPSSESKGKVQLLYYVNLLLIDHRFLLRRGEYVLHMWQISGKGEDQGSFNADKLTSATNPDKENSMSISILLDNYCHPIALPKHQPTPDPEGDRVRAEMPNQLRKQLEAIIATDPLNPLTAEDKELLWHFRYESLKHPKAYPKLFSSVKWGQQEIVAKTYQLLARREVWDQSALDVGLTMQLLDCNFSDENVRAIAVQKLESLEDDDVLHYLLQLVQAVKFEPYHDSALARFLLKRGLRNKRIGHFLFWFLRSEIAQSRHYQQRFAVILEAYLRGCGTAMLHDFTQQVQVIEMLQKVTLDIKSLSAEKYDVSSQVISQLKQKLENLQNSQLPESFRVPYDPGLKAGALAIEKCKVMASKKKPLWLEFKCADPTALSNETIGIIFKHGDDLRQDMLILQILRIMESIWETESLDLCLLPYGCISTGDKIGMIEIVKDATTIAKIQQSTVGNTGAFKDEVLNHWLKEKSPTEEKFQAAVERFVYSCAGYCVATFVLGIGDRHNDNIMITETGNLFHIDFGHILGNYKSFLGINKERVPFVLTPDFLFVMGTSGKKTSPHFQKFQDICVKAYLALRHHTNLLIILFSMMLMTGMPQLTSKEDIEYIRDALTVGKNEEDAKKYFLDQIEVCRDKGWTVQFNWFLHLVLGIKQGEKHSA
State the answer as a number, implicitly in %.

Would you mind telling me what kinase still bound, per cent of control value was observed for COc1ccc(CNC(=O)Nc2ncc([N+](=O)[O-])s2)cc1 ?
100

Would you mind telling me what kinase still bound, per cent of control value was observed for Cc1cnc(-c2cnc(NCCNc3ccc(C#N)cn3)nc2-c2ccc(Cl)cc2Cl)[nH]1 ?
14

Would you mind telling me what kinase still bound, per cent of control value was observed for Cn1cc(C2=C(c3ccc(Cl)cc3Cl)C(=O)NC2=O)c2ccccc21 ?
93

Would you mind telling me what kinase still bound, per cent of control value was observed for O=C1Nc2cc(Br)ccc2/C1=C1/Nc2ccccc2/C1=N\O ?
82

---

target: YES1 (human); experiment: KINOMEscan competition binding; conditions: compound 10.0 µM
measuredEndpoint: kinase still bound, per cent of control (%)
State the answer as a number, implicitly in %.

Known kinase still bound, per cent of control results, listed for orientation:
COc1ccc(CNC(=O)Nc2ncc([N+](=O)[O-])s2)cc1 ... 83
Cn1cc(C2=C(c3ccc(Cl)cc3Cl)C(=O)NC2=O)c2ccccc21 ... 100
O=C1Nc2cc(Br)ccc2/C1=C1/Nc2ccccc2/C1=N\O ... 6.4

Look up kinase still bound, per cent of control with YES1 (human) for this compound: Cc1cnc(-c2cnc(NCCNc3ccc(C#N)cn3)nc2-c2ccc(Cl)cc2Cl)[nH]1
100

---

target: MAP2K2 (human) (UniProt P36507); assay: KINOMEscan competition binding; details: compound 10.0 µM
Sequence (P36507 whole entry, looked up): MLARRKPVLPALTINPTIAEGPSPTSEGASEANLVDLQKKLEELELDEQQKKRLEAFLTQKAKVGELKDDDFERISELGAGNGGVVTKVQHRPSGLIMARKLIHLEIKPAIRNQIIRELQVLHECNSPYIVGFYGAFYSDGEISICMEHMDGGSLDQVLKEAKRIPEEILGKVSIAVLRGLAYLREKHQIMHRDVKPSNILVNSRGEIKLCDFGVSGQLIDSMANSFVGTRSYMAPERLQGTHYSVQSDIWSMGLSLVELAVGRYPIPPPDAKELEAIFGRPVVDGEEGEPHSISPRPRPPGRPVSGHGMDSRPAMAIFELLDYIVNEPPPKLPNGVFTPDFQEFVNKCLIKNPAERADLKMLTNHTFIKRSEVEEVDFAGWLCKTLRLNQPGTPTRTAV
The reader will find reported kinase still bound, per cent of control values listed item by item below.
State the answer as a number, implicitly in %.

Cn1cc(C2=C(c3ccc(Cl)cc3Cl)C(=O)NC2=O)c2ccccc21 ... 100
O=C1Nc2cc(Br)ccc2/C1=C1/Nc2ccccc2/C1=N\O ... 26
COc1ccc(CNC(=O)Nc2ncc([N+](=O)[O-])s2)cc1 ... 100

Please turn your attention to the following entry.
Would you mind telling me what kinase still bound, per cent of control value was observed for Cc1cnc(-c2cnc(NCCNc3ccc(C#N)cn3)nc2-c2ccc(Cl)cc2Cl)[nH]1 ?
100

---

biological target: AURKC (human) (UniProt Q9UQB9); test: KINOMEscan competition binding; conditions: compound 10.0 µM
The reader will find reported kinase still bound, per cent of control values listed item by item below.
State the answer as a number, implicitly in %.

Known kinase still bound, per cent of control results, listed for orientation:
Cn1cc(C2=C(c3ccc(Cl)cc3Cl)C(=O)NC2=O)c2ccccc21 ... 96
Cc1cnc(-c2cnc(NCCNc3ccc(C#N)cn3)nc2-c2ccc(Cl)cc2Cl)[nH]1 ... 92
COc1ccc(CNC(=O)Nc2ncc([N+](=O)[O-])s2)cc1 ... 92

Please turn your attention to the following entry.
Would you mind telling me what kinase still bound, per cent of control value was observed for O=C1Nc2cc(Br)ccc2/C1=C1/Nc2ccccc2/C1=N\O ?
0.75

---

The reader will find reported kinase still bound, per cent of control values listed item by item below.
target: TGFBR1 (human) (UniProt P36897); test: KINOMEscan competition binding; conditions: compound 10.0 µM
A complete answer gives the number followed by the unit.

Known kinase still bound, per cent of control results, listed for orientation:
COc1ccc(CNC(=O)Nc2ncc([N+](=O)[O-])s2)cc1 ... 82%
O=C1Nc2cc(Br)ccc2/C1=C1/Nc2ccccc2/C1=N\O ... 83%
Cc1cnc(-c2cnc(NCCNc3ccc(C#N)cn3)nc2-c2ccc(Cl)cc2Cl)[nH]1 ... 100%

Please turn your attention to the following entry.
Would you mind telling me what kinase still bound, per cent of control value was observed for Cn1cc(C2=C(c3ccc(Cl)cc3Cl)C(=O)NC2=O)c2ccccc21 ?
96%

---

biological target: CDK3 (human) (UniProt Q00526); experiment: KINOMEscan competition binding; conditions: compound 10.0 µM
Sequence (Q00526 whole entry, looked up): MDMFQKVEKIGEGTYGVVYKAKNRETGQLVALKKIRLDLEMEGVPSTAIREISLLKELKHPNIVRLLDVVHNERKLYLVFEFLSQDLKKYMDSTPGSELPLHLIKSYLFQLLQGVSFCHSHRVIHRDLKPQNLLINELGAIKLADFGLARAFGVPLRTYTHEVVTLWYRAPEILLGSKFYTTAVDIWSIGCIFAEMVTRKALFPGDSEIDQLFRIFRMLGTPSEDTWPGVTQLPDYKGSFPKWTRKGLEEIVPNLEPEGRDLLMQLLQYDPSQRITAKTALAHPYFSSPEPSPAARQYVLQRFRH
The reader will find reported kinase still bound, per cent of control values listed item by item below.
State the answer as a number, implicitly in %.

Cc1cnc(-c2cnc(NCCNc3ccc(C#N)cn3)nc2-c2ccc(Cl)cc2Cl)[nH]1 ... 89
COc1ccc(CNC(=O)Nc2ncc([N+](=O)[O-])s2)cc1 ... 68
O=C1Nc2cc(Br)ccc2/C1=C1/Nc2ccccc2/C1=N\O ... 75

Would you mind telling me what kinase still bound, per cent of control value was observed for Cn1cc(C2=C(c3ccc(Cl)cc3Cl)C(=O)NC2=O)c2ccccc21 ?
14

---

target: EPHA5 (human) (UniProt P54756); assay: KINOMEscan competition binding; conditions: compound 10.0 µM
The reader will find reported kinase still bound, per cent of control values listed item by item below.
State the answer as a number, implicitly in %.

Cn1cc(C2=C(c3ccc(Cl)cc3Cl)C(=O)NC2=O)c2ccccc21 ... 99

Would you mind telling me what kinase still bound, per cent of control value was observed for COc1ccc(CNC(=O)Nc2ncc([N+](=O)[O-])s2)cc1 ?
100

Would you mind telling me what kinase still bound, per cent of control value was observed for O=C1Nc2cc(Br)ccc2/C1=C1/Nc2ccccc2/C1=N\O ?
30

Would you mind telling me what kinase still bound, per cent of control value was observed for Cc1cnc(-c2cnc(NCCNc3ccc(C#N)cn3)nc2-c2ccc(Cl)cc2Cl)[nH]1 ?
100

---

target: UniProt P42338; test: KINOMEscan competition binding; conditions: compound 10.0 µM
Sequence (P42338 whole entry, looked up): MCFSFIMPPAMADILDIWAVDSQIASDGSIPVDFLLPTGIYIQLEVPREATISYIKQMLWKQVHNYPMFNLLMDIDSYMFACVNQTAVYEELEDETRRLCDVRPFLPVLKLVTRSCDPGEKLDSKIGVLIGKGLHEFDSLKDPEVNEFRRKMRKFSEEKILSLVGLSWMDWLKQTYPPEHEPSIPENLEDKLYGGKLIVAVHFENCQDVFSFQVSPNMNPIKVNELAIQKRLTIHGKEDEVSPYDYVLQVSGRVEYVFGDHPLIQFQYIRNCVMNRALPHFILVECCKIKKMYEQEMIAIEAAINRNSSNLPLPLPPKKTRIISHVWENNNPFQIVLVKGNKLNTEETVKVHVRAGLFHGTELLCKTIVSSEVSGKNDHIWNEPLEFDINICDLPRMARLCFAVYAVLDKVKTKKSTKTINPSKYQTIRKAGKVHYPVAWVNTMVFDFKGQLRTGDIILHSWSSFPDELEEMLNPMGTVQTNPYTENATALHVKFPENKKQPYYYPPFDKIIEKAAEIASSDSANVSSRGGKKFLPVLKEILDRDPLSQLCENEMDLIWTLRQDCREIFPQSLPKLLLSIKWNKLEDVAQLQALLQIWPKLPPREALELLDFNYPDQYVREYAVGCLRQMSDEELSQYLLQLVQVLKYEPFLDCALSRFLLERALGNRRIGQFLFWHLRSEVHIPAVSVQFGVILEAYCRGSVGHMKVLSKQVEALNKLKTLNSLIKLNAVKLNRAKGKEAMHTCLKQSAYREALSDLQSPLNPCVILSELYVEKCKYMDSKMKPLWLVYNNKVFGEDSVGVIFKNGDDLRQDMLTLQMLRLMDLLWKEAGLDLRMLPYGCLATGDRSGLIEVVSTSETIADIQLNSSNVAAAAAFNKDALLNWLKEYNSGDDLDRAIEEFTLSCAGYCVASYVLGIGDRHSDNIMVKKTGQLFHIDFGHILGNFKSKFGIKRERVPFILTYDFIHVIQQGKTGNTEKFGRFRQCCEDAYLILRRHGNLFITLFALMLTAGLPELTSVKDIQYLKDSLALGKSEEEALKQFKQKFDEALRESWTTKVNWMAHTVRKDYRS
The reader will find reported kinase still bound, per cent of control values listed item by item below.
State the answer as a number, implicitly in %.

COc1ccc(CNC(=O)Nc2ncc([N+](=O)[O-])s2)cc1 ... 100
O=C1Nc2cc(Br)ccc2/C1=C1/Nc2ccccc2/C1=N\O ... 88
Cn1cc(C2=C(c3ccc(Cl)cc3Cl)C(=O)NC2=O)c2ccccc21 ... 85

Please turn your attention to the following entry.
Would you mind telling me what kinase still bound, per cent of control value was observed for Cc1cnc(-c2cnc(NCCNc3ccc(C#N)cn3)nc2-c2ccc(Cl)cc2Cl)[nH]1 ?
100
